Data provenance: patent US9539260B2

# system: PI3K alpha (Homo sapiens (Human), UniProt P42336)
# Sequence (P42336 other isoform, or with tags, fused parts or gaps): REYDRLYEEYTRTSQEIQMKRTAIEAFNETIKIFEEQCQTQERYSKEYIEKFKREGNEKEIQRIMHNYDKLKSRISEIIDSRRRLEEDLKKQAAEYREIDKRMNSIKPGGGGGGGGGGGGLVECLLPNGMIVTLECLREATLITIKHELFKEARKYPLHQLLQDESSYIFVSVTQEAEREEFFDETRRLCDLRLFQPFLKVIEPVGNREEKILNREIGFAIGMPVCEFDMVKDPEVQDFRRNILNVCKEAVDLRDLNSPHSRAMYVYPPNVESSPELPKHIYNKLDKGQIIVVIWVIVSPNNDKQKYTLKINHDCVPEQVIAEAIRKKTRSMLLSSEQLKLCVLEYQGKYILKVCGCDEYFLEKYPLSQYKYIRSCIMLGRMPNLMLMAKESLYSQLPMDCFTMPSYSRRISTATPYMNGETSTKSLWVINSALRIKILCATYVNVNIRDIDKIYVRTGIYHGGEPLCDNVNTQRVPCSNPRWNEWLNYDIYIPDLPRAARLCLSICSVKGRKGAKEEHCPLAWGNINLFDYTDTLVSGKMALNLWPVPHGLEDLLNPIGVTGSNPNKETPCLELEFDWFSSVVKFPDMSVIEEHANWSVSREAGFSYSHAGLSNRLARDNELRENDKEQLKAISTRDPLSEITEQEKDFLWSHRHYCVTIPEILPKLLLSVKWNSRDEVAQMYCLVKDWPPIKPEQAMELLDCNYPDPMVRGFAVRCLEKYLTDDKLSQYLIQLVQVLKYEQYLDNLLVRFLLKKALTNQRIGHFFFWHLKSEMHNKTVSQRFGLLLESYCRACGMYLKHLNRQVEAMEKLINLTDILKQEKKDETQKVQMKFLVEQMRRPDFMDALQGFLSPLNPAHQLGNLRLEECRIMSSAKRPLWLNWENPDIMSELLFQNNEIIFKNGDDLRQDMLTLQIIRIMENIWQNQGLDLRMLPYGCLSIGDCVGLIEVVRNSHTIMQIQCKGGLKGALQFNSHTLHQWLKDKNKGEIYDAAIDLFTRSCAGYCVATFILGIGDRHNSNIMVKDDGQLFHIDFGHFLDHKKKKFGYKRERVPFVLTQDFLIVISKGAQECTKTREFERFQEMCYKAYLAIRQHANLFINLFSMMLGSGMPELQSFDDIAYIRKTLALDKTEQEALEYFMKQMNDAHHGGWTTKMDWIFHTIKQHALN
# test: Enzymatic PI3K alpha isoform inhibition (lipid kinase activity, Kinase-Glo luminescence)
# Type: biochemical
# recordedConditions: Enzymatic assay
measuredAttribute: IC50 (nM)

# annotated cases, reported IC50 shown
smilesNotation: COc1ncc(N2CCOc3ccc(O[C@H]4CON(C(=O)C5CCOCC5)C4)cc32)cc1C#N
readoutNumber: 1020
--
smilesNotation: Cc1cc(N2CCOc3cnc(O[C@H]4CCN(C(=O)C5CCOCC5)C4)cc32)cnc1S(C)(=O)=O
readoutNumber: 783

(P) COc1ncc(N2CCOc3ccc(O[C@H]4CCN(C(=O)c5cnco5)C4)cc32)cc1Cl
(Q) COCC(=O)N1CC[C@H](Oc2ccc3c(c2)N(c2cnc(OC)c(F)c2)CCO3)C1
// query Please tell me which of the two, P or Q , has the higher reported IC50 value. Response format: the label of the selected entry.
// result Q
(Q: 302 nM, P: 94 nM)

###

# system: PI3K delta (Homo sapiens (Human), UniProt O00329)
# Sequence (O00329 other isoform, or with tags, fused parts or gaps linker GGGGGG): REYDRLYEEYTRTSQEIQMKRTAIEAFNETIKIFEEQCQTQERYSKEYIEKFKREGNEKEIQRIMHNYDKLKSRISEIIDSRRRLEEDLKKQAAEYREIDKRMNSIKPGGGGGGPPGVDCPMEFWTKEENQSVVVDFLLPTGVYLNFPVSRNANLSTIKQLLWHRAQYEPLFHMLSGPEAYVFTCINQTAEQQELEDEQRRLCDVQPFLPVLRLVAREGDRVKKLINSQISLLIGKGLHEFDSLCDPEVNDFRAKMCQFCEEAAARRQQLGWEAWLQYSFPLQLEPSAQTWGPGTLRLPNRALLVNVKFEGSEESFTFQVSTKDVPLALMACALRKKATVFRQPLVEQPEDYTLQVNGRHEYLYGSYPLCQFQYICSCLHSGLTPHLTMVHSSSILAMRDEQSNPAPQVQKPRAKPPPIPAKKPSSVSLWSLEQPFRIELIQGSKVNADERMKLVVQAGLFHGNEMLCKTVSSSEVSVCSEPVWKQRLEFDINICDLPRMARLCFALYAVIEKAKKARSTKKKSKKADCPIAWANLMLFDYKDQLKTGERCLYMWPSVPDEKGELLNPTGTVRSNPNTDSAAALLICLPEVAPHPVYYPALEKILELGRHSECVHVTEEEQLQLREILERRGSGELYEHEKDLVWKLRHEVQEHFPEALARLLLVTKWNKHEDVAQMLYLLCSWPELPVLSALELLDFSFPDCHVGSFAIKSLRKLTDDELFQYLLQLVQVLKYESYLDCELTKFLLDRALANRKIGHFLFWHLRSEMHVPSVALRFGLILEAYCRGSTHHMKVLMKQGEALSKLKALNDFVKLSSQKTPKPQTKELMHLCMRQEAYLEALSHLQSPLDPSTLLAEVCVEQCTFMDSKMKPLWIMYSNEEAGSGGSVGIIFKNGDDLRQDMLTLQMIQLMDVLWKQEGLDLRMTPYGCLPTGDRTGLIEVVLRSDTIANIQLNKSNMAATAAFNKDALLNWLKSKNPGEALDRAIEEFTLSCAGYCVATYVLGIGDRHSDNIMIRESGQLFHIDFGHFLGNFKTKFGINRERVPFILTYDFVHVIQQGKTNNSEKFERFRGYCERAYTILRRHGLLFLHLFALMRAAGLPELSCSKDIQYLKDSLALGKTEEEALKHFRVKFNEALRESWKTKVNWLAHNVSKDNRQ
# test: Enzymatic PI3K delta isoform inhibition (lipid kinase activity, Kinase-Glo luminescence)
# recordedConditions: Enzymatic assay
pIC50: −log10 of the molar value.
measuredAttribute: pIC50

molecule: COc1ncc(N2CCOc3ccc(O[C@H]4CCN(C(=O)C5COCCO5)C4)cc32)cc1F (single isomer, unassigned) [Example H16]
pIC50: 7.80
--
molecule: Cc1cc(N2CCOc3ccc(O[C@H]4CCN(C(=O)C5CCS(=O)(=O)C5)C4)cc32)cnc1S(C)(=O)=O (stereo partly drawn) [Example B35]
pIC50: 7.57
--
molecule: Cc1cc(N2CCOc3ccc(O[C@H]4CCN(C(=O)C5CCOCC5)C4)c(F)c32)cnc1S(C)(=O)=O
pIC50: 8.22
--
molecule: CCC(=O)N1CC[C@H](Oc2ccc3c(c2)N(c2cncc(S(=O)(=O)N(C)OC)c2)CCO3)C1
pIC50: 7.51

(P) COc1ncc(N2CCOc3ccc(O[C@H]4CCN(C(=O)C5CCOC5)C4)cc32)cc1C (stereo partly drawn) [Example B16]
(Q) Cc1cc(N2CCOc3ccc(O[C@H]4CCN(C(=O)C5CCCCC5)C4)cc32)cnc1S(C)(=O)=O
// query Hi team, can someone confirm which has the larger pIC50: P or Q ? Thanks. Mark your answer with the label of the selected entry.
// result Q

(1) COc1ncc(N2CCOc3ccc(O[C@H]4CCN(C(=O)c5cnccn5)C4)cc32)cc1C#N
(2) Cc1cc(N2CCOc3ccc(O[C@H]4CCN(C(=O)C5CCOC5)C4)cc32)cnc1S(C)(=O)=O (stereo partly drawn)
(3) COc1ncc(N2CCOc3ccc(O[C@H]4CCN(C(=O)N5CCOCC5)C4)cc32)cc1C#N
(4) COc1ncc(N2CCOc3ccc(O[C@H]4CCN(C(=O)C5CCN(C(C)=O)CC5)C4)cc32)cc1C#N
// query Arrange these molecules by their pIC50, starting with the largest number. Answer by listing the labels in the order asked for.
// result 2, 3, 1, 4

###

# system: PI3K alpha (Homo sapiens (Human))
# test: Enzymatic PI3K alpha isoform inhibition (lipid kinase activity, Kinase-Glo luminescence)
# recordedConditions: Enzymatic assay
pIC50: −log10 of the molar value.
measuredAttribute: pIC50

Recorded results for 5 compounds are shown here.
compound: COc1ncc(N2CCOc3ccc(O[C@H]4CCN(C(=O)[C@@H]5CCN(C(C)=O)C5)C4)cc32)cc1C#N
system: PI3K alpha (Homo sapiens (Human))
pIC50: 6.41
//
compound: COc1cc(N2CCOc3ccc(O[C@H]4CCN(C(=O)C5COCCO5)C4)cc32)cnc1OC (single isomer, unassigned) [Example H6]
system: PI3K alpha (Homo sapiens (Human))
pIC50: 6.07
//
compound: COc1ncc(N2CCOc3ccc(O[C@H]4CCN(C(=O)C5CCN(C)CC5)C4)cc32)cc1C#N
system: PI3K alpha (Homo sapiens (Human))
pIC50: 6.38
//
compound: COc1ncc(N2CCOc3ccc(O[C@@H]4CCN(C(=O)C5CCOCC5)C4)cc32)cc1C#N
system: PI3K alpha (Homo sapiens (Human))
pIC50: 5.91
//
compound: Cc1cc(N2CCOc3ccc(O[C@H]4CCN(C(=O)[C@H]5CC[C@@H](O)CC5)C4)cc32)cnc1S(C)(=O)=O
system: PI3K alpha (Homo sapiens (Human))
pIC50: 5.99

(a) Cc1cc(N2CCOc3ccc(O[C@H]4CCN(C(=O)C5CCOC5)C4)cc32)cnc1S(C)(=O)=O (stereo partly shown)
(b) COc1ncc(N2CCOc3ccc(O[C@H]4CCN(C(=O)C5CCS(=O)(=O)C5)C4)cc32)cc1F (stereo partly shown) [Example B101]
// query Pick one, a or b : lowest reported pIC50. Mark your answer with the label of the selected entry.
// result a
(a: 6.01, b: 6.33)

###

# system: PI3K alpha (Homo sapiens (Human), UniProt P42336)
# test: Enzymatic PI3K alpha isoform inhibition (lipid kinase activity, Kinase-Glo luminescence)
# recordedConditions: Enzymatic assay
pIC50: −log10 of the molar value.
measuredAttribute: pIC50

compound: COc1ncc(N2c3cc(O[C@H]4CCN(C(=O)C5CCOCC5)C4)ccc3OCC2C)cc1C#N (stereo partly drawn) [Example C6]
pIC50: 5.37
//
compound: COc1ncc(N2CCOc3ccc(O[C@H]4CCN(C(=O)C5CCS(=O)(=O)C5)C4)cc32)cc1F (single isomer, unassigned) [Example H12]
pIC50: 6.28
//
compound: COc1ncc(N2CCOc3ccc(O[C@H]4CCN(C(=O)c5cc[nH]c(=O)c5)C4)cc32)cc1C#N
pIC50: 6.28

(a) CCC(=O)N1CC[C@H](Oc2ccc3c(c2)N(c2cncc(S(=O)(=O)N(C)C)c2)CCO3)C1
(b) COc1ncc(N2CCOc3ccc(O[C@H]4CCN(C(=O)Cc5ccncc5)C4)cc32)cc1C#N
(c) COc1ncc(N2CCOc3ccc(O[C@H]4CCN(C(=O)c5nnc(C)o5)C4)cc32)cc1C#N
(d) COc1ncc(N2CCOc3ccc(N[C@H]4CCN(C(=O)C5CCOCC5)C4)cc32)cc1C#N
// query Order the records so the highest pIC50 appears first and the lowest last. // respond by listing labels in the order requested
// result a, c, b, d

###

# system: UniProtKB P42336
# test: Enzymatic PI3K alpha isoform inhibition (lipid kinase activity, Kinase-Glo luminescence)
# recordedConditions: Enzymatic assay
measuredAttribute: IC50 (nM)

Would you please look over these solved cases?
compound: COc1ncc(N2CCOc3ccc(O[C@H]4CCN(C(=O)C5CCS(=O)(=O)CC5)C4)cc32)cc1C [Example B93]
readoutNumber: 525
--
compound: Cc1cc(N2CCOc3ccc(O[C@H]4CCN(C(=O)C5COCCO5)C4)cc32)cnc1S(C)(=O)=O (stereo partly drawn) [Example B36]
readoutNumber: 801
--
compound: COc1cc(N2CCOc3ccc(O[C@H]4CCN(C(=O)C5CCS(=O)(=O)C5)C4)cc32)cnc1OC (single isomer, unassigned) [Example H10]
readoutNumber: 727
--
compound: COc1ncc(N2CCOc3ccc(O[C@H]4CCN(C(=O)C5CCCOC5)C4)cc32)cc1C#N (stereo partly drawn) [Example C26]
readoutNumber: 6950
--
compound: COc1ncc(N2CCOc3ccc(O[C@H]4CCN(C(=O)c5cnccn5)C4)cc32)cc1C#N [Example C15]
readoutNumber: 383
--
compound: CS(=O)(=O)c1ncc(N2CCOc3ccc(O[C@H]4CCN(C(=O)C5CCOCC5)C4)cc32)cc1F [Example B86]
readoutNumber: 6630
--
compound: COc1ncc(N2CCOc3ccc(O[C@H]4CCN(C(=O)c5cn(C)cn5)C4)cc32)cc1NS(C)(=O)=O [U]
readoutNumber: 192
--
compound: COc1ncc(N2CCOc3cnc(O[C@H]4CCN(C(=O)c5cn(C)cn5)C4)cc32)cc1C [Example E1]
readoutNumber: 98
--
compound: CCC(=O)N1CC[C@H](Oc2ccc3c(c2)N(c2ccc(OC)nc2)CCO3)C1 [Example C4]
readoutNumber: 3000
--
compound: CCC(=O)N1CC[C@H](Oc2ccc3c(c2)N(c2ccc(C)c(S(=O)(=O)N4CCCCC4)c2)CCO3)C1 [Example A24]
readoutNumber: 6880

(1) CCC(=O)N1CC[C@H](Oc2ccc3c(c2)N(c2cnc(N)c(C(F)(F)F)c2)CCO3)C1 [Example A17]
(2) CCC(=O)N1CC[C@H](Oc2ccc3c(c2)N(c2cncc(S(C)(=O)=O)c2)CCO3)C1 [Example A37]
(3) CCS(=O)(=O)c1ccc(N2CCOc3ccc(O[C@H]4CCN(C(=O)C5CCOCC5)C4)cc32)cn1 [Example B87]
(4) COc1ncc(N2CCOc3ccc(O[C@H]4CCN(C(=O)C5=CC(=O)CC(C)(C)O5)C4)cc32)cc1C#N [Example C21]
(5) COc1ncc(N2CCOc3ccc(O[C@H]4CCN(C(=O)C5CCS(=O)(=O)CC5)C4)cc32)cc1C(F)(F)F [Example B14]
// query Order these by IC50, descending, and give the full ranking. Write the labels in rank order as requested.
// result 3, 4, 2, 5, 1
(3: 7090 nM, 4: 698 nM, 2: 370 nM, 5: 244 nM, 1: 104 nM)
